This listing pairs molecules with measured inhibition at 0.111 µM.
Biological target: recombinant human SAE enzyme (Homo sapiens, UniProt Q9UBT2)
Sequence (Q9UBT2 1-640): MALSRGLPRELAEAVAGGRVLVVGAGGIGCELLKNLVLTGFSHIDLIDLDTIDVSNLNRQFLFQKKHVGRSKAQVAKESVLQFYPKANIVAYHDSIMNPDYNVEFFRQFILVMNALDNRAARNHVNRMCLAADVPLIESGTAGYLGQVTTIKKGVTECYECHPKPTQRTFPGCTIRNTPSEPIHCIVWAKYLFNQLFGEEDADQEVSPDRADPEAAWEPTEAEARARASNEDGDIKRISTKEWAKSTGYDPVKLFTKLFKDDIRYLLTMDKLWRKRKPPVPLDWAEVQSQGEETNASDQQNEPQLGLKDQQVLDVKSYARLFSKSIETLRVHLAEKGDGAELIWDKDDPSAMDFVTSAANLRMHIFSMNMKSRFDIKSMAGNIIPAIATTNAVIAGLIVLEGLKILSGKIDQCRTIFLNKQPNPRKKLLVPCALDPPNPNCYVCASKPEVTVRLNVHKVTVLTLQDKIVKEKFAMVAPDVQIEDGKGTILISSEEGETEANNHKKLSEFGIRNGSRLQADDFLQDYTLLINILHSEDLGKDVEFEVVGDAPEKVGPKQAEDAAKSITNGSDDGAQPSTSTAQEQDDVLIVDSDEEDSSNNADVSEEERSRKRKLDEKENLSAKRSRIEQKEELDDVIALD
Sequence (Q9UBE0 1-346 partner): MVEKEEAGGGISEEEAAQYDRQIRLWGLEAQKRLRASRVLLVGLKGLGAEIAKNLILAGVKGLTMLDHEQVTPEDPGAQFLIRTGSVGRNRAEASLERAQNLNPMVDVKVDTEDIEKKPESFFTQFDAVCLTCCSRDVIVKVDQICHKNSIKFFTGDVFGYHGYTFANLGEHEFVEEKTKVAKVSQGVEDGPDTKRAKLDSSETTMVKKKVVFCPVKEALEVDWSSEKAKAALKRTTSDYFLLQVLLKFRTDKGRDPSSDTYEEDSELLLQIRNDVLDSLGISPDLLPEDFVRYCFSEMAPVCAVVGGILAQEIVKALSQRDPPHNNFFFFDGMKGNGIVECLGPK
Test: SAE HTRF Enzyme Assay
Type: biochemical
Conditions: compound concentration 0.111 μM; read-out: Percent Inhibition
Don't forget the unit after the number, please.

NS(=O)(=O)OC[C@H]1C[C@@H](Nc2ncncc2C(=O)c2ccn(Cc3cccc(I)c3)n2)[C@@H](F)[C@@H]1O : 99%
NS(=O)(=O)OC[C@H]1C[C@@H](Nc2ncncc2C(=O)c2ccn(Cc3cccc(F)c3)n2)[C@H](O)[C@@H]1O : 100%
NS(=O)(=O)OC[C@H]1C[C@@H](Nc2ncncc2C(=O)c2ccn(Cc3cc(Br)ccn3)n2)[C@H](O)[C@@H]1O : 100%

Sample `Cc1cc(C(=O)c2cncnc2N[C@@H]2C[C@H](COS(N)(=O)=O)[C@@H](O)[C@H]2O)nn1Cc1ccccc1` ; inhibition at 0.111 µM observed: 94%
